# System: Host
# ASSAY_EXPLANATION: Growth inhibition, MTT colorimetric assay, Host
# Format: cell-based
# STATED_CONDITIONS: 72 h; 3 days with drug; means of six values; unit inferred; read-out: IC50 Host
pIC50: −log10 of the molar value.
Label 1.0 for high-side pIC50 (at or above 6) and 0.0 for low-side pIC50 (below it).

# MOLECULE, SYSTEM, ASSIGNED_CLASS
rows = [
    ("Oc1ccc(CN(Cc2ccccc2)Cc2ccc(O)c3ncccc23)c2cccnc12", "Host", 0.0),
    ("Oc1ccc(CN(Cc2cccc(I)c2)Cc2ccc(O)c3ncccc23)c2cccnc12", "Host", 0.0),
    ("Cc1ccc(CN(Cc2ccc(O)c3ncccc23)Cc2ccc(O)c3ncccc23)cc1", "Host", 0.0),
    ("O=C(O)C1CCC(CN(Cc2ccc(O)c3ncccc23)Cc2ccc(O)c3ncccc23)CC1 (stereo not drawn)", "Host", 0.0),
    ("Oc1ccc(CN(Cc2ccc(C(F)(F)F)cc2)Cc2ccc(O)c3ncccc23)c2cccnc12", "Host", 1.0),
]
